// data source = patent US9233979B2

target: phosphorylated active hERK2 enzyme (Homo sapiens (Human)); assay: Active Human ERK2 (hERK2) Activity Assay (IMAP-FP); assay type: biochemical; conditions: Table 6, 0.5 nM hERK2, 30 μM ATP, 10 point titration, read-out: AERK2 IC50
ENDPOINT_LABEL: log10(IC50) (log10 of the value in nM)
For clarity, the numbers are log10 values of IC50 expressed in nM.

Examples from the recorded data:
COC[C@@H](NC(=O)Nc1cc2[nH]nc(NCC3CCC3)c2cn1)c1ccccc1 [Example 156] ... -0.15
COC[C@@H](NC(=O)Nc1cc2[nH]nc(N)c2c(C)n1)c1ccccc1 [Example 335] ... 0.48
C[C@@H](NC(=O)Nc1cc2[nH]nc(NCC3CCC3)c2cn1)c1ccccc1 [Example 213] ... 0.34

Test item Cc1nc(NC(=O)N[C@@H](c2ccc(F)cc2)[C@@H](C)O)cc2[nH]nc(N3CCOCC3)c12 [Example 106] ; phosphorylated active hERK2 enzyme (Homo sapiens (Human)); reported log10(IC50) was -0.30

C[C@@H](NC(=O)Nc1cc2[nH]nc(NC(=O)N3CC(F)(F)C3)c2cn1)c1ccc(F)cc1 [Example 128] on phosphorylated active hERK2 enzyme (Homo sapiens (Human)) gives log10(IC50) = 0.53

phosphorylated active hERK2 enzyme (Homo sapiens (Human)) log10(IC50) of COC[C@@H](NC(=O)Nc1cc2[nH]nc(NC3CC3)c2cn1)c1ccccc1 [Example 329] is 0.00

Query COC[C@@H](NC(=O)Nc1cc2[nH]nc(N3CC4CCC(C3)O4)c2cn1)c1ccccc1 [Example 441] on phosphorylated active hERK2 enzyme (Homo sapiens (Human)); log10(IC50) returned: -0.05

Hey, phosphorylated active hERK2 enzyme (Homo sapiens (Human)) data for CCNc1n[nH]c2cc(NC(=O)NCc3cnsn3)ncc12 [Example 231] : log10(IC50) came out at 1.76

Result for C[C@@H](NC(=O)Nc1cc2[nH]nc(NC(=O)C3CCCCC3)c2cn1)c1ccccc1 [Example 204] , tested on phosphorylated active hERK2 enzyme (Homo sapiens (Human)), log10(IC50): 0.77

Observed log10(IC50), phosphorylated active hERK2 enzyme (Homo sapiens (Human)), COc1cc([C@@H](C)NC(=O)Nc2cc3[nH]nc(NC(=O)N[C@H](C)c4ccc(Cl)c(OC)c4)c3cn2)ccc1Cl [Example 314] : 2.86

Known value: phosphorylated active hERK2 enzyme (Homo sapiens (Human)) log10(IC50) of the compound CCNc1n[nH]c2cc(NC(=O)N[C@@H](c3ccccc3)C(C)(C)O)ncc12 [Example 420] equals 0.32

Record CCNc1n[nH]c2cc(NC(=O)NCc3c(F)cccc3Cl)ncc12 [Example 244] / phosphorylated active hERK2 enzyme (Homo sapiens (Human)), log10(IC50) recorded as 1.03

Note to self: log10(IC50) of CC(C)OC(=O)Nc1n[nH]c2cc(NC(=O)N[C@H](C)c3ccc(F)cc3)ncc12 [Example 398] with phosphorylated active hERK2 enzyme (Homo sapiens (Human)) was 1.72

###

target: UniProt P28482; test: Active Human ERK2 (hERK2) Activity Assay (IMAP-FP); format: biochemical; details: Table 5, 0.5 nM hERK2, 30 μM ATP, 10 point titration, read-out: AERK2 IC50
pIC50: −log10 of the molar value.
Each record's class is read off its pIC50 using these ranges: L: < 7; M: ≥ 7 and < 8; H: ≥ 8

COCCNC(=O)Nc1cc2[nH]nc(N3CC(OC)C3)c2cn1 ... L
C[C@@H](NC(=O)Nc1cc2[nH]nc(N3CCOCC3)c2cn1)c1ccccc1 ... H

Exercise: read the entry COC[C@H](C)NC(=O)Nc1cc2[nH]nc(N3CCOCC3)c2cn1 and state which class it falls under.
M

Into which bin does this compound go? C[C@@H](NC(=O)Nc1cc2[nH]nc(NS(=O)(=O)C3CNC3)c2cn1)c1ccccc1
L

Pick a category. Item: C[C@@H](NC(=O)Nc1cc2[nH]nc(N3CCCC3)c2cn1)c1ccccc1
H

Pick a category. Item: CNc1n[nH]c2cc(NC(=O)N[C@H](C)c3ccccc3)ncc12
H

Which of the defined bands does the recorded pIC50 of CN1C[C@H](NC(=O)Nc2cc3[nH]nc(N4CCOCC4)c3cn2)[C@@H](c2ccccc2)C1 sit within?
M

###

target: UniProt:P28482; test: Active Human ERK2 (hERK2) Activity Assay (IMAP-FP); format: biochemical; details: Table 6, 0.5 nM hERK2, 30 μM ATP, 10 point titration, read-out: AERK2 IC50
ENDPOINT_LABEL: pIC50
Convention used: pIC50 is expressed as -log10 of the molar concentration.

Some solved cases for reference:
CC(C)(O)[C@@H](NC(=O)Nc1cc2[nH]nc(NC(=O)N3CC(F)(F)C3)c2cn1)c1ccc(F)cc1 [Example 129] ... 9.40
C[C@@H](NC(=O)Nc1cc2[nH]nc(N3CC(C)(O)C3)c2cn1)c1ccccc1 [Example 92] ... 7.56
COC(=O)Nc1n[nH]c2cc(NC(=O)N[C@H](C)c3cccc(F)c3)ncc12 [Example 299] ... 8.80
C[C@@H](NC(=O)Nc1cc2[nH]nc(NC(=O)OCCO)c2cn1)c1ccc(F)cc1 [Example 404] ... 8.28
COC[C@@H](NC(=O)Nc1cc2[nH]nc(NCC3CC(C(C)(C)O)C3)c2cn1)c1ccccc1 (some centres unmarked) [Example 183] ... 8.44
COCCNc1n[nH]c2cc(NC(=O)N[C@H](C)c3ccc(F)cc3)ncc12 [Example 374] ... 8.55

For reference, reported pIC50 for COC(=O)Nc1n[nH]c2cc(NC(=O)N[C@H](C)c3ccccc3)ncc12 [Example 220] stands at 6.45

The compound listed as CC(NC(=O)Nc1cc2[nH]nc(N)c2cn1)c1ccc(F)c(F)c1 (centres unmarked) [Example 275] has a reported pIC50 of 8.34

###

Target: phosphorylated active hERK2 enzyme (Homo sapiens (Human))
Assay: Active Human ERK2 (hERK2) Activity Assay (IMAP-FP)
Format: biochemical
Settings: Table 6, 0.5 nM hERK2, 30 μM ATP, 10 point titration, read-out: AERK2 IC50
Experimental: Assays Active Human ERK2 (hERK2) Activity Assay: Activated ERK2 activity was determined in an IMAP-FP assay (Molecular Devices). […] The final reaction in each well of 25 μL consists of 0.5 nM hERK2, 900 nM unlabeled peptide, 80 nM labeled-peptide, and 30 μM ATP. […] Plates were read on EnVision reader after 60 minutes binding equilibration using Fluorescence Polarization protocol (Perkin Elmer).
ENDPOINT_LABEL: pIC50
The read-out pIC50 is expressed as -log10 of concentration in moles per litre.

Example entries begin here.
COC[C@H](NC(=O)Nc1cc2[nH]nc(N3CCOCC3)c2cn1)c1ccc(F)cc1 ... 9.40
CCNc1n[nH]c2cc(NC(=O)NCc3c(F)cccc3OC)ncc12 ... 8.62
C[C@@H]1CN(c2n[nH]c3cc(NC(=O)N[C@@H](c4ccccc4)C(C)(C)O)ncc23)C[C@H](C)O1 ... 9.10
COC(=O)Nc1n[nH]c2cc(NC(=O)N[C@@H](c3ccccc3)C(C)(C)O)ncc12 ... 9.40
COC(=O)Nc1n[nH]c2cc(NC(=O)N[C@@H]3CCOc4ccccc43)ncc12 ... 7.26
CC(Nc1n[nH]c2cc(NC(=O)N[C@H](C)c3ccccc3)ncc12)C(F)(F)F (some centres unmarked) [Example 419] ... 8.66
Nc1n[nH]c2cc(NC(=O)N[C@@H](c3ccccc3)[C@@H]3CCCO3)ncc12 ... 9.05

Let us move to another entry and its pIC50.
compound CC(C)(O)[C@@H](NC(=O)Nc1cc2[nH]nc(NC(=O)N3CCC3)c2cn1)c1ccc(F)cc1 , pIC50 observed: 9.30

###

Reported IC50 values are given for each entry in this list.
molecular target: phosphorylated active hERK2 enzyme (Homo sapiens (Human), UniProt P28482); assay: Active Human ERK2 (hERK2) Activity Assay (IMAP-FP); assay type: biochemical; conditions: Table 6, 0.5 nM hERK2, 30 μM ATP, 10 point titration, read-out: AERK2 IC50
Sequence (P28482 whole entry): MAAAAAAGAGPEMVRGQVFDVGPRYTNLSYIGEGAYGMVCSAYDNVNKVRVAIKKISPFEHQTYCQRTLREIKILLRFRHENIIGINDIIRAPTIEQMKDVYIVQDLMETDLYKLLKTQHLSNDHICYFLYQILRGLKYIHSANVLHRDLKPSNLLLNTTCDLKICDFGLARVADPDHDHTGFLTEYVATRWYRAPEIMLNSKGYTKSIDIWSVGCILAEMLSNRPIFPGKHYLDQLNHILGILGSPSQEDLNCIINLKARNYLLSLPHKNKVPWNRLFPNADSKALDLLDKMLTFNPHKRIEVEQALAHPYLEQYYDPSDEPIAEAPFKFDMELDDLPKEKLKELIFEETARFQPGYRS
Give the quantity in nM, number only.

Check out these entries, answers already filled in.
COC(=O)Nc1n[nH]c2cc(NC(=O)NC(C)c3ccc(F)c(F)c3)ncc12 (stereo not shown) ... 3.1
COC[C@@H](NC(=O)Nc1cc2[nH]nc(NC(=O)C(C)C)c2cn1)c1ccccc1 ... 0.4
C[C@@H](NC(=O)Nc1cc2[nH]nc(NCc3cccnc3)c2cn1)c1ccccc1 ... 0.7

Now for a further compound.
The recorded IC50 for entry Cc1ccc(Nc2n[nH]c3cc(NC(=O)N[C@H](C)c4ccccc4)ncc23)cn1 equals 8.8
